The following molecules are shown together with reported Number of dead mice, 3rd day values.
- Tested on: ICR mice
- test_details: Acute toxicity test
- Assay type: in vivo
- measurement_context: male, 55.0 mg/kg i.p.

Below, each entry is followed by its recorded Number of dead mice, 3rd day result.
CCC1O[C@H](CN)[C@@H](CN)O1.O=C1C[O][Pt][O]1
4/6
CC1(C)O[C@H](CN)[C@@H](CN)O1.O=C1C[O][Pt][O]1
4/6
NC[C@H]1OC2(CCCC2)O[C@@H]1CN.O=C1C[O][Pt][O]1
4/6
NC[C@H]1OC2(CCCCC2)O[C@@H]1CN.O=C1C[O][Pt][O]1
1/4

-- ask Find the recorded Number of dead mice, 3rd day belonging to "CC(C)C1O[C@H](CN)[C@@H](CN)O1.O=C1C[O][Pt][O]1" and report it.
-- reply 1/6

###

- Test system: ICR mice
- test_details: Acute toxicity test
- Format: in vivo
- measurement_context: male, 160 mg/kg i.p.
assay_readout: Number of dead mice for 7 days

-- ask Find the recorded Number of dead mice for 7 days belonging to CCC1OC2C[NH2+][Pt-2]3([NH2+]CC2O1)[O]C(=O)C1(CCC1)C(=O)[O]3 (centres unmarked) and report it.
-- reply 0/6

-- ask Find the recorded Number of dead mice for 7 days belonging to CC1OC2C[NH2+][Pt-2]3([NH2+]CC2O1)[O]C(=O)C1(CCC1)C(=O)[O]3 (centres unmarked) and report it.
-- reply 4/6

-- ask Find the recorded Number of dead mice for 7 days belonging to O=C1[O][Pt-2]2([NH2+]CC3OCOC3C[NH2+]2)[O]C(=O)C12CCC2 (centres unmarked) and report it.
-- reply 5/6

-- ask Find the recorded Number of dead mice for 7 days belonging to CC1(C)OC2C[NH2+][Pt-2]3([NH2+]CC2O1)[O]C(=O)C1(CCC1)C(=O)[O]3 (centres unmarked) and report it.
-- reply 0/6

-- ask Find the recorded Number of dead mice for 7 days belonging to O=C1[O][Pt-2]2([NH2+]CC3OC4(CCCC4)OC3C[NH2+]2)[O]C(=O)C12CCC2 (centres unmarked) and report it.
-- reply 1/6

###

- System: ICR mice
- test_details: Acute toxicity test
- Format: in vivo
- measurement_context: female, 91.8 mg/kg i.p.
assay_readout: Number of dead mice, 4th day

CCC1(CC)OC2C[NH2+][Pt-2]3([NH2+]CC2O1)[O]CC(=O)[O]3 (centres unmarked)
2/2
CC1[O][Pt][O]C1=O.NCC1OC2(CCCC2)OC1CN (centres unmarked)
2/3
CC1[O][Pt][O]C1=O.CCC1OC(CN)C(CN)O1 (centres unmarked)
2/3

-- ask Under ICR mice: Number of dead mice, 4th day value of CC(C)C1OC(CN)C(CN)O1.CC1[O][Pt][O]C1=O (centres unmarked) ?
-- reply 2/3

-- ask Under ICR mice: Number of dead mice, 4th day value of CCC1(C)OC2C[NH2+][Pt-2]3([NH2+]CC2O1)[O]CC(=O)[O]3 (centres unmarked) ?
-- reply 4/4

###

The following compounds are shown together with reported Number of dead mice, 3rd day values.
- System: ICR mice
- test_details: Acute toxicity test
- Format: in vivo
- measurement_context: male, 71.4 mg/kg i.p.

Below, each entry is followed by its recorded Number of dead mice, 3rd day result.
CC1(C)O[C@H](CN)[C@@H](CN)O1.O=C1C[O][Pt][O]1
4/6
CC(C)C1O[C@H](CN)[C@@H](CN)O1.O=C1C[O][Pt][O]1
2/6
NC[C@H]1OC2(CCCC2)O[C@@H]1CN.O=C1C[O][Pt][O]1
4/6

-- ask Find the recorded Number of dead mice, 3rd day belonging to CCC1(CC)OC2C[NH2+][Pt-2]3([NH2+]CC2O1)[O]CC(=O)[O]3 (stereo not drawn) and report it.
-- reply 1/6

-- ask Find the recorded Number of dead mice, 3rd day belonging to "CCC1O[C@H](CN)[C@@H](CN)O1.O=C1C[O][Pt][O]1" and report it.
-- reply 4/6

-- ask Find the recorded Number of dead mice, 3rd day belonging to "NC[C@H]1OC2(CCCCC2)O[C@@H]1CN.O=C1C[O][Pt][O]1" and report it.
-- reply 1/3

###

- System: ICR mice
- test_details: Acute toxicity test
- Assay type: in vivo
- Parameters: unit not given here
- measurement_context: female, 54.9 mg/kg i.p.; 10080 min
The following compounds are shown together with reported Lethality values.
Reply: number alone, nothing else.

-- ask Under ICR mice: Lethality value of CC1[O][Pt][O]C1=O.NCC1OC2(CCCC2)OC1CN (centres unmarked) [Example 15] ?
-- reply 50.0

-- ask Under ICR mice: Lethality value of CC1[O][Pt][O]C1=O.CCC1OC(CN)C(CN)O1 (centres unmarked) [Example 18] ?
-- reply 66.7

###

The following compounds are shown together with reported Number of dead mice, 3rd day values.
- Test system: ICR mice
- test_details: Acute toxicity test
- Type: in vivo
- measurement_context: female, 91.8 mg/kg i.p.

Below, each entry is followed by its recorded Number of dead mice, 3rd day result.
CC1[O][Pt][O]C1=O.NCC1OC2(CCCC2)OC1CN (centres unmarked) [Example 15]
2/5
CC(C)C1OC(CN)C(CN)O1.CC1[O][Pt][O]C1=O (centres unmarked) [Example 19]
2/5
CCC1(C)OC2C[NH2+][Pt-2]3([NH2+]CC2O1)[O]CC(=O)[O]3 (centres unmarked) [Example 9]
2/6

-- ask Find the recorded Number of dead mice, 3rd day belonging to CCC1(CC)OC2C[NH2+][Pt-2]3([NH2+]CC2O1)[O]CC(=O)[O]3 (centres unmarked) [Example 8] and report it.
-- reply 3/5

-- ask Find the recorded Number of dead mice, 3rd day belonging to CC1[O][Pt][O]C1=O.CCC1OC(CN)C(CN)O1 (centres unmarked) [Example 18] and report it.
-- reply 2/5

###

The following compounds are shown together with reported Number of dead mice for 7 days values.
- System: ICR mice
- test_details: Acute toxicity test
- Format: in vivo
- measurement_context: male, 42.3 mg/kg i.p.

CC1(C)O[C@H](CN)[C@@H](CN)O1.O=C1C[O][Pt][O]1
5/6
NC[C@H]1OC2(CCCCC2)O[C@@H]1CN.O=C1C[O][Pt][O]1
0/6
CC(C)C1O[C@H](CN)[C@@H](CN)O1.O=C1C[O][Pt][O]1
2/6

-- ask Find the recorded Number of dead mice for 7 days belonging to "NC[C@H]1OC2(CCCC2)O[C@@H]1CN.O=C1C[O][Pt][O]1" and report it.
-- reply 2/6

-- ask Find the recorded Number of dead mice for 7 days belonging to "CCC1O[C@H](CN)[C@@H](CN)O1.O=C1C[O][Pt][O]1" and report it.
-- reply 4/6

###

The following compounds are shown together with reported T/C (%) values.
- Test system: murine leukemia L1210
- test_details: Antitumor activity test on murine leukemia L1210 in vivo
- Set-up: species or system male BDF1 mice
- measurement_context: 25 mg/kg i.p., days 1, 5, 9
Give the value in % but do not write % after it.

Below, each entry is followed by its recorded T/C (%) result.
NC[C@H]1OC2(CCCCC2)O[C@@H]1CN.O=C1C[O][Pt][O]1
231
NC[C@H]1OCO[C@@H]1CN.O=C1C[O][Pt][O]1
160
CC(C)(C)C1OC2C[NH2+][Pt-2]3([NH2+]CC2O1)[O]CC(=O)[O]3 (stereo not drawn)
167
CC1[O][Pt][O]C1=O.NCC1OC2(CCCCC2)OC1CN (stereo not drawn)
227
CC(C)C1O[C@H](C[NH-])[C@@H](C[NH-])O1.O=C([O-])CC(=O)[O-].[Pt+4] (relative stereo)
148
O=C1CC(=O)[O][Pt-2]2([NH2+]CC3OC4(CCCC4)OC3C[NH2+]2)[O]1 (stereo not drawn)
169
CC1OC2C[NH2+][Pt-2]3([NH2+]CC2O1)[O]C(=O)C1(CCC1)C(=O)[O]3 (stereo not drawn) [Example 22]
247
O=C1[O][Pt-2]2([NH2+]CC3OCOC3C[NH2+]2)[O]C(=O)C12CCC2 (stereo not drawn)
137
CC1(C)C(=O)[O][Pt-2]2([NH2+]CC3OC4(CCCC4)OC3C[NH2+]2)[O]C1=O (stereo not drawn)
172
CC1(C)OC2C[NH2+][Pt-2]3([NH2+]CC2O1)[O]C(=O)CC(=O)[O]3 (stereo not drawn)
179

-- ask Find the recorded T/C (%) belonging to CCC1C(=O)[O][Pt-2]2([NH2+]CC3OC(C(C)C)OC3C[NH2+]2)[O]C1=O (stereo not drawn) and report it.
-- reply 137

-- ask Find the recorded T/C (%) belonging to CC1[O][Pt][O]C1=O.NCC1OCOC1CN (stereo not drawn) and report it.
-- reply 207

-- ask Find the recorded T/C (%) belonging to CC1(C)OC2C[NH2+][Pt-2]3([NH2+]CC2O1)[O]C(=O)C1(CCC1)C(=O)[O]3 (stereo not drawn) [Example 26] and report it.
-- reply 217
